Where these numbers come from: ChEMBL document CHEMBL1157307

# Test system: MCF7
# method.description: Antiproliferative activity against human MCF7 cells by neutral red method
# Format: functional, cell-based
endpoint.label: IC50
Give me the value, and tack the unit on after it.

Reported IC50 ( O=C(NCCSSCCNC(=O)/C(Cc1ccc(O)c(Br)c1)=N/O)/C(Cc1ccc(O)c(Br)c1)=N/O ) = 5 µM
